TARGET_OR_SYSTEM: T1, RecG DNA helicase, wildtype (E. coli, UniProt P24230 1-693)
T1 construct: RecG DNA helicase, E. coli, expressed from overexpression plasmid pEAW111; No tag is mentioned; also called WT RecG; source: E. coli STL2669/pT7pol26 with pEAW111, purified (ammonium sulfate, DEAE, Source 15Q, Source 15S)
T1 sequence (looked up): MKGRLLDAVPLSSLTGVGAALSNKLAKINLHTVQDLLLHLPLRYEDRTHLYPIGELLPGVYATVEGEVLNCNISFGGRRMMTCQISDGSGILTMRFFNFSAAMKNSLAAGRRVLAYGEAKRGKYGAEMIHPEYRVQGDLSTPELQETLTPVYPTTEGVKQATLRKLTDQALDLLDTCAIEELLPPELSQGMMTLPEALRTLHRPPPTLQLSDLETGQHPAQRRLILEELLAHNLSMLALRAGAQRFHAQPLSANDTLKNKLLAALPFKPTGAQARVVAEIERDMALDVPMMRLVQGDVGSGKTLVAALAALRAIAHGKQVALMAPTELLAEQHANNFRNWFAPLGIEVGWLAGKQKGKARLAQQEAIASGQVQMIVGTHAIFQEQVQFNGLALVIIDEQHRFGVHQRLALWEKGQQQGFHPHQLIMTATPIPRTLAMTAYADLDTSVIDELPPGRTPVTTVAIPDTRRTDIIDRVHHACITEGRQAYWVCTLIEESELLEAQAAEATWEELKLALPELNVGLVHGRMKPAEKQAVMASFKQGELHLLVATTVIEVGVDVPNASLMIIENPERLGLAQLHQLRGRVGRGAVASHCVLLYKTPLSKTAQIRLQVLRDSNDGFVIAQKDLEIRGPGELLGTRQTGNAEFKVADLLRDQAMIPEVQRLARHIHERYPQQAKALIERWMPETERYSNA
PROTOCOL: fluorescence polarisation; RecG titrated against 10 nM 6-FAM peptide; 0.2 M potassium glutamate, 1 mM DTT, 0.1 μg/ml BSA, 1x RecA buffer (25 mM Tris-acetate pH 7.6, 5% glycerol, 10 mM magnesium acetate); 30 min at room temperature, read at 25°C; one site binding model, triplicate
COND: both partners purified
Where no end group is shown, it is not given here. The star is where a group is joined. 6FAM = O=C1OC2(c3ccc(O)cc3Oc3cc(O)ccc32)c2cc(C(=O)*)ccc21
REPORTED_ENDPOINT: Kd
Please answer in the form of a number followed by its unit of measurement.

// sample 6FAM-WMDFDDDIPF (N-terminal tryptophan residue added for quantification; C-terminal tip of SSB, E. coli; also called fluorescently labeled SSB-Ct peptide; source: synthetic peptide (Genscript)) [SSB-Ct peptide, 6-FAM labelled] , its Kd was 3.1 µM
